Applied conditions: human gut metagenome, 24 h, 2 µM; further: call rule not given here
Reported property: Bacterial Biotransformation

Solved cases (5 shown):
| Compound | Bacterial Biotransformation |
| --- | --- |
| OCCN1CCN(CCCN2c3ccccc3Sc3ccc(C(F)(F)F)cc32)CC1 | Compound metabolized |
| CS(=O)(=O)O.O.O.O.O=C1Cc2cc(CCN3CCN(c4nsc5ccccc45)CC3)c(Cl)cc2N1 [ZIPRASIDONE MESYLATE] | Compound NOT metabolized |
| COc1c(C)c2c(c(O)c1C/C=C(\C)CCC(=O)OCCN1CCOCC1)C(=O)OC2 [MYCOPHENOLATE MOFETIL] | Compound metabolized |
| CCN(CC)CCNC(=O)c1cc(Cl)c(N)cc1OC [METOCLOPRAMIDE] | Compound NOT metabolized |
| Cc1ccc(S(=O)(=O)NC(=O)NN2CC3CCCC3C2)cc1 (stereo not drawn) [GLICLAZIDE] | Compound metabolized |

// fetch Bacterial Biotransformation given entry OC(CCN1CCCCC1)(c1ccccc1)C1CCCCC1 (stereo not drawn)
Compound metabolized

// fetch Bacterial Biotransformation given entry CC(C)(C(=O)O)c1ccc(C(O)CCCN2CCC(C(O)(c3ccccc3)c3ccccc3)CC2)cc1 (stereo not drawn) [FEXOFENADINE]
Compound NOT metabolized

// fetch Bacterial Biotransformation given entry O=c1[nH]c2ccccc2n1CCCN1CCC(n2c(=O)[nH]c3cc(Cl)ccc32)CC1
Compound NOT metabolized

* * *

Experimental details: The drug is tested on Z-010 corresponding to metagenome with ENA study accession number: PRJEB37062 and ENA sample accession number: ERS12561810 for biotransformation under anaerobic condition. The drug concentrations were measured over 9 timepoints collected between 0 and 24 hours of incubation by liquid-chromatography-coupled mass spectrometry (LC–MS)
Applied conditions: 2 µM
Reported property: Bacterial Biotransformation

Solved cases (6 shown):
| Compound | Reported property | Obs value |
| --- | --- | --- |
| CN1CCc2c(c3ccccc3n2Cc2ccccc2)C1.CN1CCc2c(c3ccccc3n2Cc2ccccc2)C1.O=S(=O)(O)c1cccc2c(S(=O)(=O)O)cccc12 | Bacterial Biotransformation | Compound NOT metabolized |
| COc1cc2nc(N3CCN(C(=O)c4ccco4)CC3)nc(N)c2cc1OC | Bacterial Biotransformation | Compound NOT metabolized |
| CCOC(=O)[C@H](CCc1ccccc1)N[C@H]1CCc2ccccc2N(CC(=O)O)C1=O | Bacterial Biotransformation | Compound metabolized |
| CCN(CC)C(=O)/C(C#N)=C/c1cc(O)c(O)c([N+](=O)[O-])c1 | Bacterial Biotransformation | Compound metabolized |
| CC(CN1c2ccccc2Sc2ccccc21)N(C)C (stereo not drawn) | Bacterial Biotransformation | Compound metabolized |
| O=C(NCc1ccccc1)OCCO [BURAMATE] | Bacterial Biotransformation | Compound NOT metabolized |

// fetch Bacterial Biotransformation given entry CC[C@H](C)C(=O)O[C@H]1C[C@@H](C)C=C2C=C[C@H](C)[C@H](CC[C@@H]3C[C@@H](O)CC(=O)O3)[C@H]21
Compound NOT metabolized

// fetch Bacterial Biotransformation given entry COc1ccccc1OCC(O)COC(N)=O (stereo not drawn)
Compound NOT metabolized

// fetch Bacterial Biotransformation given entry CCOC(=O)[C@H](CCc1ccccc1)N[C@@H](C)C(=O)N1[C@H](C(=O)O)C[C@H]2CCCC[C@@H]21
Compound metabolized

// fetch Bacterial Biotransformation given entry COC1=CC(=O)C[C@@H](C)[C@]12Oc1c(Cl)c(OC)cc(OC)c1C2=O
Compound metabolized

// fetch Bacterial Biotransformation given entry CC(C)(C#N)c1cc(Cn2cncn2)cc(C(C)(C)C#N)c1
Compound NOT metabolized

* * *

Experimental details: The drug is tested on WLS-010 corresponding to human gut metagenome with ENA study accession number: PRJEB37062 and ENA sample accession number: ERS12561743 for biotransformation under anaerobic condition. The drug concentrations were measured over 9 timepoints collected between 0 and 24 hours of incubation by liquid-chromatography-coupled mass spectrometry (LC–MS)
Applied conditions: 2 µM
Reported property: Bacterial Biotransformation

Solved cases (5 shown):
| Compound | Obs value |
| --- | --- |
| N#Cc1ccc(C(c2ccc(C#N)cc2)n2cncn2)cc1 | Compound NOT metabolized |
| CC(C)(Oc1ccc(CCNC(=O)c2ccc(Cl)cc2)cc1)C(=O)O [BEZAFIBRATE] | Compound metabolized |
| COC(=O)[C@H]1[C@H]2C[C@@H]3c4[nH]c5cc(OC)ccc5c4CCN3C[C@H]2C[C@@H](OC(=O)c2cc(OC)c(OC)c(OC)c2)[C@@H]1OC | Compound metabolized |
| COCCc1ccc(OCC(O)CNC(C)C)cc1.COCCc1ccc(OCC(O)CNC(C)C)cc1.O=C(O)C(O)C(O)C(=O)O (configuration not stated) [METOPROLOL TARTRATE] | Compound NOT metabolized |
| O=c1n(CCCN2CCN(c3cccc(Cl)c3)CC2)nc2ccccn12 | Compound NOT metabolized |

// fetch Bacterial Biotransformation given entry CC(C)c1nc(CN(C)C(=O)N[C@H](C(=O)N[C@@H](Cc2ccccc2)C[C@H](O)[C@H](Cc2ccccc2)NC(=O)OCc2cncs2)C(C)C)cs1
Compound metabolized

// fetch Bacterial Biotransformation given entry CC(C)OC(=O)C(C)(C)Oc1ccc(C(=O)c2ccc(Cl)cc2)cc1 [FENOFIBRATE]
Compound NOT metabolized

* * *

Applied conditions: human gut metagenome, 24 h, 2 µM
Reported property: Bacterial Biotransformation

Solved cases (5 shown):
| Compound | Bacterial Biotransformation |
| --- | --- |
| Nc1nc2ccc(OC(F)(F)F)cc2s1 [RILUZOLE] | Compound metabolized |
| CN1C[C@H](C(=O)N[C@]2(C)O[C@@]3(O)[C@@H]4CCCN4C(=O)[C@H](Cc4ccccc4)N3C2=O)C=C2c3cccc4[nH]cc(c34)C[C@H]21.CN1C[C@H](C(=O)N[C@]2(C)O[C@@]3(O)[C@@H]4CCCN4C(=O)[C@H](Cc4ccccc4)N3C2=O)C=C2c3cccc4[nH]cc(c34)C[C@H]21.O=C(O)C(O)C(O)C(=O)O [ERGOTAMINE TARTRATE] | Compound metabolized |
| CN1CCN(C(=O)O[C@H]2c3nccnc3C(=O)N2c2ccc(Cl)cn2)CC1 [ESZOPICLONE] | Compound NOT metabolized |
| CCN(CC)CC#CCOC(=O)C(O)(c1ccccc1)C1CCCCC1.Cl (stereo unspecified) [OXYBUTYNIN CHLORIDE] | Compound metabolized |
| CN1CCc2c(c3ccccc3n2Cc2ccccc2)C1.CN1CCc2c(c3ccccc3n2Cc2ccccc2)C1.O=S(=O)(O)c1cccc2c(S(=O)(=O)O)cccc12 | Compound metabolized |

Here's the next entry for you.
// fetch Bacterial Biotransformation given entry O=P(O)(O)O.c1ccc(CN(CC2=NCCN2)c2ccccc2)cc1 [ANTAZOLINE PHOSPHATE]
Compound NOT metabolized

* * *

Applied conditions: human gut metagenome, 24 h, 2 µM
Reported property: Bacterial Biotransformation

Solved cases (5 shown):
| Compound | Bacterial Biotransformation |
| --- | --- |
| CCCCC1=NC2(CCCC2)C(=O)N1Cc1ccc(-c2ccccc2-c2nnn[nH]2)cc1 [IRBESARTAN] | Compound metabolized |
| Cc1ccnc2c1NC(=O)c1cccnc1N2C1CC1 [NEVIRAPINE] | Compound metabolized |
| CC(C)N(CCC(C(N)=O)(c1ccccc1)c1ccccn1)C(C)C.O=P(O)(O)O (stereo not drawn) [DISOPYRAMIDE PHOSPHATE] | Compound NOT metabolized |
| CN(C)CCC=C1c2ccccc2C=Cc2ccccc21 [CYCLOBENZAPRINE] | Compound NOT metabolized |
| CS(=O)(=O)O.O.O.O.O=C1Cc2cc(CCN3CCN(c4nsc5ccccc45)CC3)c(Cl)cc2N1 [ZIPRASIDONE MESYLATE] | Compound NOT metabolized |

// fetch Bacterial Biotransformation given entry CN1CCc2cccc3c2[C@H]1Cc1ccc(O)c(O)c1-3 [APOMORPHINE]
Compound NOT metabolized

// fetch Bacterial Biotransformation given entry CO[C@]12C[C@@H](COC(=O)c3cncc(Br)c3)CN(C)[C@@H]1Cc1cn(C)c3cccc2c13 [NICERGOLINE]
Compound NOT metabolized

// fetch Bacterial Biotransformation given entry Cc1nc2n(c(=O)c1CCN1CCC(c3noc4cc(F)ccc34)CC1)CCCC2O (stereo not drawn) [PALIPERIDONE]
Compound metabolized

// fetch Bacterial Biotransformation given entry CCOC(=O)[C@H](CCc1ccccc1)N[C@H]1CCc2ccccc2N(CC(=O)O)C1=O [BENAZEPRIL]
Compound NOT metabolized

// fetch Bacterial Biotransformation given entry COC(=O)C1=C(C)NC(C)=C(C(=O)OC(C)C)C1c1cccc2nonc12 (stereo not drawn) [ISRADIPINE]
Compound NOT metabolized

// fetch Bacterial Biotransformation given entry COc1c2occc2cc2ccc(=O)oc12 [METHOXSALEN]
Compound metabolized

// fetch Bacterial Biotransformation given entry Cc1nc2n(c(=O)c1CCN1CCC(c3noc4cc(F)ccc34)CC1)CCCC2 [RISPERIDONE]
Compound metabolized
